Record form. Attribute: IC50. Fill in for each entry.
# measurement_target: Human immunodeficiency virus type 1 protease (Human immunodeficiency virus 1)
# assay_overview: Inhibitory concentration against wild-type HIV-1 protease

Q: Using known records, supply IC50 for CC(C)(C)CNC(=O)[C@@H]1CN(C(C)(C)c2cc3cnccc3o2)CCN1C[C@@H](O)C[C@@H](Cc1ccccc1)C(=O)N[C@H]1c2ccccc2OC[C@H]1O
A: 1.16 nM

Q: Using known records, supply IC50 for CCNC(=O)[C@@H]1CN(C(C)(C)c2cc3cnccc3o2)CCN1C[C@@H](O)C[C@@H](Cc1ccccc1)C(=O)N[C@H]1c2ccccc2OC[C@H]1O
A: 0.61 nM

Q: Using known records, supply IC50 for CC(C)(c1cc2cnccc2o1)N1CCN(C[C@@H](O)C[C@@H](Cc2ccccc2)C(=O)N[C@H]2c3ccccc3OC[C@H]2O)[C@H](C(=O)NCC2CC2)C1
A: 0.5 nM

Q: Using known records, supply IC50 for CC(C)(c1cc2cnccc2o1)N1CCN(C[C@@H](O)C[C@@H](Cc2ccccc2)C(=O)N[C@H]2c3ccccc3OC[C@H]2O)[C@H](C(=O)NCCC(F)(F)F)C1
A: 1.6 nM

Q: Using known records, supply IC50 for CC(C)(c1cc2cnccc2o1)N1CCN(C[C@@H](O)C[C@@H](Cc2ccccc2)C(=O)N[C@H]2c3ccccc3OC[C@H]2O)[C@H](C(=O)NCc2ccccc2)C1
A: 2.19 nM

Q: Using known records, supply IC50 for CC(C)(c1cc2cnccc2o1)N1CCN(C[C@@H](O)C[C@@H](Cc2ccccc2)C(=O)N[C@H]2c3ccccc3OC[C@H]2O)[C@H](C(=O)Nc2ccccc2)C1
A: 13.8 nM
